molecular target: Cytochrome P450 1A2 (Homo sapiens) (UniProt P05177); assay: Cytochrome P450 Family 1 Subfamily A Member 2 (CYP1A2) small molecule antagonists: luciferase reporter qHTS assay (AID 1671199); details: P450-Glo CYP1A2 enzyme, luciferin luminescence, 1 h; series mostly up to 115 µM; further: nearly all actives have a fitted effect of over 50% in size
Sequence (P05177 whole entry, looked up): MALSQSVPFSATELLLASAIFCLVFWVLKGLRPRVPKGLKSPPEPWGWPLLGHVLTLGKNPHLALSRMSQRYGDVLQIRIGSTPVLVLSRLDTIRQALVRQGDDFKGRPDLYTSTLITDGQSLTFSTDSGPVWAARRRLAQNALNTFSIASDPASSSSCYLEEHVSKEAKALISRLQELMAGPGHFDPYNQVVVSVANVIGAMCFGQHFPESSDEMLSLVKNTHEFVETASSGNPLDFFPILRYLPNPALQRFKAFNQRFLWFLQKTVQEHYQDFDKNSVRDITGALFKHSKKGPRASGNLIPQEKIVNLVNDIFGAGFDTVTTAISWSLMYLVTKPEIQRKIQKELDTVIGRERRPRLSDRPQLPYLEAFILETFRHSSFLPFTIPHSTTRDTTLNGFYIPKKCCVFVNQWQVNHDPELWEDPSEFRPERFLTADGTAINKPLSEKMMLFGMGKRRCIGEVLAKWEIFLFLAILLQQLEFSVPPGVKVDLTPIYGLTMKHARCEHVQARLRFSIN
Records with an inconclusive call do not appear. Activity calls are given as the source filed them. The call rests on the fitted dose curve; in most records, active means well fitted inhibition curve with a large enough effect in the repeat runs; inconclusive means weak or mixed curves; inactive means no such curve, though single readings can be large or run the other way.
Just give me one of these, please: 1.0 = active, 0.0 = inactive

CC(C)=CCCC(C)C=O (centres undefined) | 0.0
N#Cc1ccc(CC(=O)c2cccc(C(F)(F)F)c2)cc1 | 1.0
CC1(COc2ccc(CC3SC(=O)NC3=O)cc2)CCCCC1 (centres undefined) | 0.0
C/C(=C(\CCO)SS/C(CCO)=C(\C)N(C=O)Cc1cnc(C)nc1N)N(C=O)Cc1cnc(C)nc1N | 0.0
CC(CN=Cc1ccccc1O)N=Cc1ccccc1O (centres undefined) | 1.0
CC(=O)Nc1ccn(C2COC(COC(=O)c3ccccc3)O2)c(=O)n1 (centres undefined) | 1.0
CNc1ccccc1 | 0.0
C/C=C1\[C@H]2C=C(C)C[C@]1(N)c1ccc(=O)[nH]c1C2 | 0.0
COc1ccc(/C=C/c2cc(OC)cc(=O)o2)cc1 | 1.0
CC1(C)CC(O)CC(C)(C)N1[O] | 0.0

GET /call?item= `CC(C)Oc1ccccc1O` returns the recorded outcome of this test.
0.0

Just curious, what result did `CCCCCCCCOCCCN` get here?
1.0

Could you please tell me the result logged for `CC(=O)c1cccnc1` in this assay?
0.0

// return assay outcome for CC(O)CN (centres undefined)
0.0

Measured values drawn from PubChem BioAssay (Tox21) for this set.
